Each recorded value in this set is attributed to PubChem BioAssay.

- tested.target: Pantothenate synthetase (Mycobacterium tuberculosis (strain ATCC 25618 / H37Rv))
- assay.explanation: Coupled enzyme confirmation of inhibitors against recombinant Mtb PanC (AID 375);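 further: 0% = full reaction with vehicle and 100% = no enzyme background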
- measurement.parameters: coupled enzyme assay; at 10 µM, hits give high values
Reported inhibition values are given for each entry in this list.
// note: answer is a bare numeric in %

Completed entries (count: 9):
CCOC(=O)N1CCC(NC(=O)Cn2c3c(c(-c4ccccc4Cl)cc2=O)CCC3)CC1 :: 0
O=c1[nH]c(CN2CCN(Cc3ccccc3)CC2)nc2sc3c(c12)CCC3 :: 0
CCN1c2nc3c(C)cccn3c(=O)c2CC2(C(=O)N(C)C(=O)N(C)C2=O)C1C (stereo not given) :: 0
Fc1ccc(Cn2nnc(-c3ccc(CN4CCOCC4)cc3)n2)cc1 :: 0
CCS(=O)(=O)N1CCC(C(=O)NC2CCCCCCC2)CC1 :: 1
COc1ccc(NC(=O)C2CCCN(S(=O)(=O)c3cccc4cccnc34)C2)cc1OC (stereo not given) :: 0
COc1ccccc1-n1c(=O)c2c3c(sc2n2c(SC(C)C)nnc12)CCC3 :: 1
O=C(c1cnc2n(c1=O)CCS2)N1CCc2ccccc21 :: 2
O=C(CSc1ncnc2c1cnn2-c1ccccc1)Nc1ccccc1 :: 5

Lab note: O=C(CCCN1CC=C(n2c(=O)[nH]c3ccccc32)CC1)c1ccc(F)cc1 gave inhibition of 0
